details: 298.15 K; 101 kPa
For each record, write down the corresponding viscosity.
Give bare numbers, in mPa·s.

Here are 5 compounds together with their reported answers.
                             chemicalsmiles   quantity  measuredresult
0                                    C=CC#N  viscosity           0.342
1                                  COC(C)OC  viscosity            4.04
2                                  Cn1ccnc1  viscosity            1.68
3  CC[N+](C)(CC)CCOC.O=S(=O)([N-]S(=O)(=O)C(F)(F)F)C(F)(F)F  viscosity           119.2
4                          FC(F)(F)c1ccccc1  viscosity            0.53

Exercise: Respond only with viscosity recorded for CCCCN(CCCC)CCCC
Solution: 1.273

---

For each record, write down the corresponding viscosity.
conditions: 308.15 K; 100 kPa
Give bare numbers, in mPa·s.

>>> print(df.to_string())
                       compound  measuredresult
0  CCCCC(C)O (stereo not given)            2.71
1                    CC(C)(N)CO           69.98
2                 CN(C)c1ccccc1           1.123
3               CCCCN(CCCC)CCCC            1.09

Exercise: Respond only with viscosity recorded for CCCCC(C)CC (stereo not given)
Solution: 0.44

---

conditions: 313.15 K; 100 kPa
quantity: viscosity (mPa·s)
Give bare numbers, in mPa·s.

// each listed compound needs a value for viscosity
1. CCCCC(C)CC (stereo unspecified)
2. CCCCC(C)O (stereo unspecified)
3. CC(C)(N)CO
4. CCCC[P+](CC)(CC)CC.N#Cc1ccc[n-]1
5. CCCCCCCCCCCCCCCCCC[P+](CCCC)(CCCC)CCCC.N#Cc1ccc[n-]1
6. CN(C)c1ccccc1

Solution:
1. 0.422
2. 2.28
3. 46.99
4. 62
5. 208
6. 1.056

---

For each record, write down the corresponding viscosity.
test: xn = mol fraction of the nth substance listed; conditions: 298.15 K; 101 kPa; x1 = 0.9
± gives the uncertainty stated by the source.
Kindly write the number and append the unit.

// each listed compound needs a value for viscosity
1. Cn1ccnc1 + CCOC(C)=O
2. CC(=O)CC(C)=O + CC(C)CCO
3. CC(=O)CC(C)=O + CCC(C)(C)O
4. CC(=O)CC(C)=O + CCCCCO
5. CC(=O)CC(C)=O + CCCC(C)O

Solution:
1.468 ± 0.089 mPa·s
0.729 ± 0.015 mPa·s
0.733 ± 0.012 mPa·s
0.722 ± 0.015 mPa·s
0.725 ± 0.015 mPa·s

---

For each record, write down the corresponding viscosity.
conditions: 293.15 K; 100 kPa
One number for each entry, in mPa·s.

Here are 3 compounds together with their reported answers.
                                   compound   quantity  measuredresult
0            CCCCC(C)CC (centres undefined)  viscosity           0.512
1  CCCCCCCCCCCCCCCCCC[P+](CCCC)(CCCC)CCCC.N#Cc1ccc[n-]1  viscosity             742
2                             CN(C)c1ccccc1  viscosity           1.415

As a next step, examine the compound that follows.
Exercise: Respond only with viscosity recorded for CCCC[P+](CC)(CC)CC.N#Cc1ccc[n-]1
Solution: 187

---

assay: xn = mol fraction of the nth substance listed; conditions: 298.15 K; 101 kPa; x1 = 0.1
For each record, write down the corresponding viscosity.
One number for each entry, in mPa·s.

Here are 3 compounds together with their reported answers.
                     compound   quantity  endpointunit  measuredresult
0  CC(=O)CC(C)=O + CCC(C)(C)O  viscosity         mPa·s           2.481
1      CC(=O)CC(C)=O + CCCCCO  viscosity         mPa·s           2.509
2    CC(=O)CC(C)=O + CCCC(C)O  viscosity         mPa·s           2.324

As a next step, examine the compound that follows.
Exercise: Respond only with viscosity recorded for CC(=O)CC(C)=O + CC(C)CCO
Solution: 2.622

---

conditions: 293.15 K; 101 kPa
± gives the uncertainty stated by the source.
quantity: viscosity
Kindly write the number and append the unit.

Here are 3 compounds together with their reported answers.
In [3]: df
Out[3]:
                                   compound       measuredresult
0  CC[N+](C)(CC)CCOC.O=S(=O)([N-]S(=O)(=O)C(F)(F)F)C(F)(F)F    162.2 ± 6.7 mPa·s
1                                    C=CC#N   0.362 ± 0.01 mPa·s
2                          Cc1ccc(C(C)C)cc1  0.826 ± 0.016 mPa·s

// each listed compound needs a value for viscosity
1. [2H]O[2H]
2. CC1CCC(O)CC1 (stereo not given)

Solution:
["1.253 ± 0.022 mPa·s", "30.4 ± 0.9 mPa·s"]

---

For each record, write down the corresponding viscosity.
assay: xn = mol fraction of the nth substance listed; conditions: 298.15 K; 101 kPa; x1 = 0.8
Give bare numbers, in mPa·s.

Here are 3 compounds together with their reported answers.
In [3]: df
Out[3]:
                   compound  endpointunit  measuredresult
0    CC(=O)CC(C)=O + CCCCCO         mPa·s           0.743
1  CC(=O)CC(C)=O + CC(C)CCO         mPa·s           0.778
2  CC(=O)CC(C)=O + CCCC(C)O         mPa·s           0.787

As a next step, examine the compound that follows.
Exercise: Respond only with viscosity recorded for CC(=O)CC(C)=O + CCC(C)(C)O
Solution: 0.776

---

experiment: xn = mol fraction of the nth substance listed; settings: 298.15 K; 101 kPa; x1 = 0.7
For each record, write down the corresponding viscosity.
Answers are plain numbers, in mPa·s.

In [3]: df
Out[3]:
                   compound  measuredresult
0  CC(=O)CC(C)=O + CCCC(C)O           0.855

// each listed compound needs a value for viscosity
1. CC(=O)CC(C)=O + CC(C)CCO
2. CC(=O)CC(C)=O + CCCCCO
3. CC(=O)CC(C)=O + CCC(C)(C)O

Solution:
[0.844, 0.796, 0.827]

---

test: xn = mol fraction of the nth substance listed; details: 298.15 K; 101 kPa; x1 = 0.3
quantity: viscosity (mPa·s)
Numbers only, in mPa·s.

                     molecule   quantity  endpointunit  measuredresult
0      CC(=O)CC(C)=O + CCCCCO  viscosity         mPa·s            1.55
1    CC(=O)CC(C)=O + CC(C)CCO  viscosity         mPa·s           1.558
2  CC(=O)CC(C)=O + CCC(C)(C)O  viscosity         mPa·s            1.39

Exercise: Respond only with viscosity recorded for CC(=O)CC(C)=O + CCCC(C)O
Solution: 1.276

---

assay: xn = mol fraction of the nth substance listed; details: 298.15 K; 101 kPa; x1 = 0.4
For each record, write down the corresponding viscosity.
Give bare numbers, in mPa·s.

Here are 3 compounds together with their reported answers.
                   compound   quantity  endpointunit  measuredresult
0  CC(=O)CC(C)=O + CCCC(C)O  viscosity         mPa·s           1.082
1    CC(=O)CC(C)=O + CCCCCO  viscosity         mPa·s           1.263
2  CC(=O)CC(C)=O + CC(C)CCO  viscosity         mPa·s            1.26

As a next step, examine the compound that follows.
Exercise: Respond only with viscosity recorded for CC(=O)CC(C)=O + CCC(C)(C)O
Solution: 1.138

---

settings: 303.15 K; 101 kPa
quantity: log10 of viscosity (log10 of the value in mPa·s)
Hello, just confirming the data are log10 of viscosity with units of mPa·s.

>>> df
   chemicalsmiles            quantity  measuredresult
0       [2H]O[2H]  log10 of viscosity           -0.01

// each listed molecule needs a value for log10 of viscosity
1. CC[N+](C)(CC)CCOC.O=S(=O)([N-]S(=O)(=O)C(F)(F)F)C(F)(F)F
2. O=C1CCCCCO1
3. CC(CC(C)(C)C)CP(=O)([O-])CC(C)CC(C)(C)C.CCCCCCCCCCCCCC[P+](CCCCCC)(CCCCCC)CCCCCC
4. C=CC#N

Solution:
[1.95, 0.69, 2.88, -0.49]

Sourced from the CheMixHub viscosity set
